# tgt: SOS1 and KRAS G12D (protein-protein interaction) (Homo sapiens, UniProt Q07889)
# test.name: KRAS::SOS1 AlphaScreen binding assay
# test.conditions: read-out: IC50 (SOS1)

{"molecule": "COc1cc2nc(C)nc(N[C@H](C)c3cc(N)cc(C(F)(F)F)c3)c2cc1-c1ccc(=O)n(C)c1 [I-108]", "quantity.unit": "nM", "IC50": 8}
{"molecule": "CONC(=O)CC(C)c1ccc2nc(C)nc(N[C@H](C)c3cccc(C(F)(F)F)c3)c2c1 (stereo partly shown) [I-376]", "quantity.unit": "nM", "IC50": 34}
{"molecule": "Cc1cccc([C@@H](C)Nc2nc(C)nc3ccc([C@H]4CC[C@H](C(=O)N5CC(C#N)C5)CC4)cc23)c1 [I-265]", "quantity.unit": "nM", "IC50": 36}
{"molecule": "Cc1nc(N[C@H](C)c2cc(N)cc(C(F)(F)F)c2)c2cc([C@H]3CC[C@H](C(=O)N(C)C)CC3)c(C)cc2n1 [I-352]", "quantity.unit": "nM", "IC50": 2}
{"molecule": "Cc1nc(N[C@H](C)c2cc(N)cc(C(F)(F)F)c2)c2cc(C3CCN(C(=O)CN(C)C)CC3)ccc2n1 [I-313]", "quantity.unit": "nM", "IC50": 3}
{"molecule": "COc1cc2nc(C)nc(N[C@H](C)c3cccc(C)c3)c2cc1[C@H]1CC[C@H](C(=O)N(C)C)CC1 [I-267]", "quantity.unit": "nM", "IC50": 9}
{"molecule": "CCn1ccc(-c2cc3c(N[C@H](C)c4cc(N)cc(C(F)(F)F)c4)nc(C)nc3cc2C)cc1=O [I-349]", "quantity.unit": "nM", "IC50": 5}

---

# tgt: SOS1 and KRAS G12D (protein-protein interaction) (Homo sapiens, UniProt Q07889)
# test.name: KRAS::SOS1 AlphaScreen binding assay
# test.conditions: read-out: IC50 (SOS1)
measurement.label: log10(IC50) (log10 of the value in nM)

{"query.smiles": "COc1cc2nc(C)nc(N[C@H](C)c3cc(N)cc(C(F)(F)F)c3)c2cc1[C@H]1CC[C@@H](C(=O)N(C)C)CC1", "log10(IC50)": 1.53}
{"query.smiles": "Cc1nc(N[C@H](C)c2cc(N)cc(C(F)(F)F)c2)c2cc([C@H]3CC[C@H](C(=O)N4CCOCC4)CC3)ccc2n1", "log10(IC50)": 0.30}
{"query.smiles": "Cc1nc(N[C@H](C)c2cc(N)cc(C(F)(F)F)c2)c2cc([C@H]3CC[C@@H](C(=O)N4CCN(C)CC4)CC3)cc(C)c2n1", "log10(IC50)": 0.90}
{"query.smiles": "COc1cc2nc(C)nc(N[C@H](C)c3cc(N)cc(C(F)(F)F)c3)c2cc1-c1ccc(=O)n(C(C)C)c1", "log10(IC50)": 1.11}
{"query.smiles": "COc1cc2nc(C)nc(N[C@H](C)c3cc(N)cc(C(F)(F)F)c3)c2cc1[C@H]1CC[C@H](C(=O)N2CCOCC2)CC1", "log10(IC50)": 0.30}
{"query.smiles": "COc1cc2nc(C)nc(N[C@H](C)c3cc(N)cc(C(F)(F)F)c3C)c2cc1[C@H]1CC[C@@H](C(=O)N(C)C)CC1", "log10(IC50)": 1.58}
{"query.smiles": "Cc1nc(N[C@H](C)c2cc(N)cc(C(F)(F)F)c2)c2cc([C@H]3CC[C@@H](C(=O)N(C)C)CC3)ccc2n1", "log10(IC50)": 1.00}
{"query.smiles": "COCC(=O)N1CCC(c2cc3c(N[C@H](C)c4cc(N)cc(C(F)(F)F)c4)nc(C)nc3cc2C)CC1", "log10(IC50)": 0.48}
{"query.smiles": "COCC(=O)N1CCC(c2cc3c(N[C@H](C)c4cccc(C)c4)nc(C)nc3cc2C)CC1", "log10(IC50)": 1.53}
{"query.smiles": "COCC(=O)N1CC=C(c2ccc3nc(C)nc(N[C@H](C)c4cc(N)cc(C(F)(F)F)c4)c3c2)CC1", "log10(IC50)": 0.48}
{"query.smiles": "COc1cc2nc(C)nc(N[C@H](C)c3cccc(C(F)(F)F)c3C)c2cc1[C@H]1CC[C@H](C(=O)N(C)C)CC1", "log10(IC50)": 0.85}
{"query.smiles": "Cc1nc(N[C@H](C)c2cc(N)cc(C(F)(F)F)c2)c2cc([C@H]3CC[C@@H](C(=O)N(C)C[C@H](C)O)CC3)ccc2n1", "log10(IC50)": 0.90}
{"query.smiles": "COc1cc2nc(C)nc(N[C@H](C)c3cc(N)cc(C(F)(F)F)c3)c2cc1-c1cnn(CC(=O)N(C)C)c1", "log10(IC50)": 0.78}
{"query.smiles": "Cc1nc(N[C@H](C)c2cc(N)cc(C(F)(F)F)c2)c2cc([C@H]3CC[C@H](C(=O)N(C)CC(C)(C)O)CC3)ccc2n1", "log10(IC50)": 0.48}

Source of measurements: patent US12053473B2
